Sourced from patent US9618524B2

Tested on: Low density cholesterol (Chl small) plaque particles
Assay notes: Mass spectroscopy proteomics, semi-quantitative binding affinity of serum proteins (plaqueproteome, Table 2)
Parameters: species or system human
Conditions: higher number = stronger affinity
Readout name: Semi-quantitative analysis of proteins binding to different plaque particles: Chl small

IN: Provide Semi-quantitative analysis of proteins binding to different plaque particles: Chl small value for the following molecule: Tetranectin (protein) EPPTQKPKKIVNAKKDVVNTKMFEELKSRLDTLAQEVALLKEQQALQTVCLKGTKVHMKCFLAFTQTKTFHEASEDCISRGGTLGTPQTGSENDALYEYLRQSVGNEAEIWLGLNDMAAEGTWVDMTGARIAYKNWETEITAQPDGGKTENCAVLSGAANGKWFDKRCRDQLPYICQFGIV
OUT: 1
